measurement-target: ERK5 (Homo sapiens)
Sequence (Q13164 whole entry): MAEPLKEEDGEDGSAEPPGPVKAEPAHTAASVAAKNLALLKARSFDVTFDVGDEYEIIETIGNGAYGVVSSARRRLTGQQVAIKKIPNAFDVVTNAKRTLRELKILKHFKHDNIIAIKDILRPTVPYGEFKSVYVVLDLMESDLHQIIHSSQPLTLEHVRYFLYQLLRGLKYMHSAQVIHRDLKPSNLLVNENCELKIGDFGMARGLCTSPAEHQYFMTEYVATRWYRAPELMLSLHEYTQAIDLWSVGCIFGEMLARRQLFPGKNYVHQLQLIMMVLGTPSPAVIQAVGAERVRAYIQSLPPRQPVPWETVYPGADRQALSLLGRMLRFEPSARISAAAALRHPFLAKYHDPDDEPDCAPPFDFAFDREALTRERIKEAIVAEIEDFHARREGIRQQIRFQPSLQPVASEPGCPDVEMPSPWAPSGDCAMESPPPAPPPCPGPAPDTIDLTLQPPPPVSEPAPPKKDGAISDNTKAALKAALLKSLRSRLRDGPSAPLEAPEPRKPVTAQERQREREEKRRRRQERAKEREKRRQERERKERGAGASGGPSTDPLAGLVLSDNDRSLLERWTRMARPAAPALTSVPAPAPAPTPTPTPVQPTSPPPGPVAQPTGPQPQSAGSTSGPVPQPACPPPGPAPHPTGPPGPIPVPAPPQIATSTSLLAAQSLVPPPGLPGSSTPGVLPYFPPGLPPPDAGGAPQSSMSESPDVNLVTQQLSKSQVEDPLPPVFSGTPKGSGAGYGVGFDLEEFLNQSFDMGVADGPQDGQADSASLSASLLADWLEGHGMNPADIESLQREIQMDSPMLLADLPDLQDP
assay-protocol: Kinase profiling (radiometric filter-binding)
Format: biochemical
run-conditions: ERK5, 1 µM inhibitor; read-out: Residual activity, %
Measured remaining activity at 1 µM of individual entries
Report as a plain number; the unit % is understood.

# compound, measurement-target, remaining activity at 1 µM, %
measured = [
    ("N=C(N)NCCC[C@@H](NC(=O)CNC(=O)[C@@H](CCCNC(=N)N)NC(=O)[C@@H](CCCNC(=N)N)NC(=O)CCCCCCCNCc1nc2c(sc3cc(Br)cnc32)c(=O)[nH]1)C(=O)N[C@H](CCCCN)C(N)=O [Compound 1, BPTP-Aoc-(D-Arg)2-Gly-D-Arg-D-Lys-NH2]", "ERK5 (Homo sapiens)", 111),
]

Q: Give reported remaining activity at 1 µM for N=C(N)NCCC[C@@H](NC(=O)CNC(=O)[C@@H](CCCNC(=N)N)NC(=O)[C@@H](CCCNC(=N)N)NC(=O)CCCCCCCNCc1nc2c(sc3ccc(Br)cc32)c(=O)[nH]1)C(=O)N[C@H](CCCCN)C(N)=O [Compound 2, BBTP-Aoc-(D-Arg)2-Gly-D-Arg-D-Lys-NH2] (ERK5 (Homo sapiens))
A: 77

Where do these numbers come from? They come from paper PMC8307404.
